Collected IC50 for Plasminogen (Homo sapiens) across several studies; molecules listed below.
Could you give me the number in µM? Just the number is fine.

> print(dat)
                                   molecule  meas.value
1   N=C(N)c1ccc2cc(OC(=O)C=Cc3cccnc3)ccc2c1           4
2  CCCOC(=O)c1ccc(OC(=O)C2CCCc3c(NC(=N)N)cccc32)cc1 (centres unmarked)         900
3  CC1(C)C(=O)N(Cc2ccc3ccc(C(=N)N)cc3c2)c2ccc(OC3CCN(C(=N)N)CC3)cc21        1.41

Measured on Plasminogen (Homo sapiens), COc1ccc2c(c1)c(CC(=O)Oc1ccc3cc(C(=N)N)ccc3c1)c(C)n2C(=O)c1ccc(Cl)cc1 has a documented IC50 of 0.1

Let me check: N=C(N)c1cc2cc(OC(=O)c3ccoc3)ccc2o1 , system Plasminogen (Homo sapiens), measured IC50 is 0.325

Bench note, Plasminogen (Homo sapiens): COc1cc(C(=N)N)ccc1OC(=O)CCCCCNC(=N)N , IC50 reads 10

----------
pIC50: −log10 of the molar value.
For reference, the following pIC50 results for UniProt:P00747 were taken from various sources.

> print(dat)
                              smiles.string  measured.property  meas.value
1  C[C@H](NC(=O)[C@@H](CO)NC(=O)NCC1CCCCC1)C(=O)N[C@H](C=O)CCCNC(=N)N              pIC50      < 5.60
2  C[C@@H](NC(=O)[C@@H](CO)NS(=O)(=O)c1cccc2ccccc12)C(=O)NCc1ccc(C(=N)N)cc1              pIC50      < 5.60
3  CC=CC=CC(=O)Oc1ccc(C(=N)N)cc1C(=O)c1ccccc1              pIC50        6.40

The molecule listed as Cc1cc2[nH]c(C(C)C)nc2cc1-c1ccc(C[C@H](NC(=O)[C@H]2CC[C@H](CN)CC2)C(=O)Nc2ccc3[nH]c(=O)[nH]c3c2)cc1 shows pIC50 equal to 8.89

Notebook: C#CCOC(=O)N(C)Nc1ncc(C)n(CC(=O)NCc2ccc(N)nc2C)c1=O , pIC50 read as ≤ 4.00

Entry NCc1ccc(CNC(=O)c2cn(Cc3ccccc3)nc2-c2ccccc2)cc1 , pIC50 reported as < 4.40

pIC50 in this record for Nc1ccc(CNC(=O)[C@H](Cc2ccc(Cl)c(Cl)c2)NC(=O)[C@H](N)Cc2ccccc2)cn1 : < 5.00

Reported pIC50 of N=C(N)c1ccc(OC(=O)C=Cc2ccccc2)c([N+](=O)[O-])c1 : 5.40

----------
Multi-source literature compilation: pIC50 on Plasminogen (Homo sapiens, UniProt P00747).
Quick note: pIC50 means taking -log10 of the concentration in moles per liter.

Reference set (6 entries):
> print(dat)
                                   compound  measured.property  meas.value
1  CC(=N)N1CCC(Oc2ccc3c(c2)C(C)(C)C(=O)N3Cc2ccc3ccc(C(=N)N)cc3c2)CC1              pIC50        5.66
2  N=C(N)NCc1ccc(C(=O)Oc2ccc3cc(C(=N)N)ccc3c2)s1              pIC50        5.05
3  Cc1cc(C(=O)N2CCCC2)ccc1-c1ccc(C[C@H](NC(=O)[C@H]2CC[C@H](CN)CC2)C(=O)Nc2ccc(-c3nn[nH]n3)cc2)cc1              pIC50        8.24
4       N=C(N)c1ccc2cc(OC(=O)c3ccco3)ccc2c1              pIC50        6.00
5  CC(=O)Oc1ccc(C=CC(=O)Oc2ccc(C(=N)N)cc2C(=O)c2ccccc2)cc1              pIC50        6.52
6  Cc1nc2[nH]c(C3CC3)nc2cc1-c1ccc(C[C@H](NC(=O)[C@H]2CC[C@H](CN)CC2)C(=O)Nc2ccc3[nH]c(=O)[nH]c3c2)cc1              pIC50        9.40

Summary: CC(=N)N1CCC(Oc2ccc3c(c2)n(Cc2ccc4ccc(C(=N)N)cc4c2)c(=O)n3C(C)C)CC1 , Plasminogen (Homo sapiens, UniProt P00747), pIC50 = 5.46

Query C[C@H](N)C(=O)N[C@@H](Cc1ccccc1)C(=O)N[C@@H](CCCNC(=N)N)B1OC2C[C@@H]3C[C@@H](C3(C)C)[C@]2(C)O1 (stereo partly drawn) on Plasminogen (Homo sapiens, UniProt P00747); pIC50 returned: 7.53

Short answer on Plasminogen (Homo sapiens, UniProt P00747) for N=C(N)c1ccc2ccc(CN3c4ccc(OC5CCN(C(=N)N)CC5)cc4CCS3(=O)=O)cc2c1 , pIC50: 5.65

Item N=C(N)c1nc2ccc(OC(=O)c3cccs3)cc2s1 ; assay system Plasminogen (Homo sapiens, UniProt P00747); pIC50 reported as 8.22

Per the reported Plasminogen (Homo sapiens, UniProt P00747) data, COC(=O)c1cc(C(=N)N)ccc1OC(=O)[C@H]1CC[C@H](CNC(=O)OCc2ccccc2)CC1 has pIC50 of 6.30

The compound CC(=N)N1CCC(Oc2ccc3c(c2)n(Cc2ccc4ccc(C(=N)N)cc4c2)c(=O)n3C)CC1 on Plasminogen (Homo sapiens, UniProt P00747): pIC50 was 5.44

The compound COc1cc(C(=N)N)ccc1OC(=O)c1ccc(NC(=N)N)cc1 , tested on Plasminogen (Homo sapiens, UniProt P00747), showed pIC50 of 5.70

----------
pIC50: −log10 of the molar value.
Assay read-out pIC50 on Plasminogen (Homo sapiens, UniProt P00747); records merged from the literature.

> print(dat)
                                   compound                              assay.system    meas.value
1  N=C(N)c1ccc(CNC(=O)[C@@H]2C=CCN2C(=O)[C@@H](CO)NS(=O)(=O)Cc2ccccc2)cc1  Plasminogen (Homo sapiens, UniProt P00747)  5.60 to 6.60
2  N=C(N)c1ccc(CNC(=O)C2C=CCN2C(=O)C(CO)NS(=O)(=O)Cc2ccccc2)s1 (mixture of isomers)  Plasminogen (Homo sapiens, UniProt P00747)  5.60 to 6.60
3  N=C(N)Nc1ccc(C=CC(=O)Oc2ccc3cc(C(=N)N)ccc3c2)cc1  Plasminogen (Homo sapiens, UniProt P00747)          5.00
4  N=C(N)Nc1ccc(CCc2ccc(C(=O)Oc3ccc4cc(C(=N)N)ccc4c3)o2)cc1  Plasminogen (Homo sapiens, UniProt P00747)          6.40
5  N/C(=N\O)c1ccc(CNC(=O)CN2C(=O)[C@@H](NS(=O)(=O)c3ccc4c(c3)CCO4)CCc3ccccc32)cc1  Plasminogen (Homo sapiens, UniProt P00747)        ≤ 5.60
6  CC(C)N(C)[C@@H](C)C(=O)N(C)[C@@H](CC1CCCCC1)C(=O)NCc1ccc(N)nc1  Plasminogen (Homo sapiens, UniProt P00747)        < 5.00
7  Cc1ccc(C=CC(=O)Oc2ccc3cc(C(=N)N)ccc3c2)cc1  Plasminogen (Homo sapiens, UniProt P00747)          6.30

# evaluate next
Recorded pIC50 for COc1c(NS(=O)(=O)Cc2ccccc2)ccc(C)c1CC(=O)N[C@H](C=O)CCCN=C(N)N on Plasminogen (Homo sapiens, UniProt P00747) was < 5.60

----------
For reference, the following pIC50 results for Plasminogen (Homo sapiens, UniProt P00747) were taken from various sources.
pIC50: −log10 of the molar value.

Recorded results for 5 molecules are shown here.
> print(dat)
                                   molecule  measured.property  meas.value
1  C#CCOC(=O)N(CC)Nc1ncc(C)n(CC(=O)NCc2ccc(N)nc2C)c1=O              pIC50      ≤ 4.00
2      N=C(N)C1=Cc2ccc(OC(=O)c3ccco3)cc2OC1              pIC50        8.82
3  N=C(N)Nc1ccc(CNC(=O)[C@@H]2C=CCN2C(=O)[C@@H](CO)NS(=O)(=O)Cc2ccccc2)cc1              pIC50      < 5.60
4  Cc1cc2[nH]c(C3CC3)nc2cc1-c1ccc(C[C@H](NC(=O)[C@H]2CC[C@H](CN)CC2)C(=O)Nc2cc(Cl)c3[nH]c(=O)[nH]c3c2)cc1              pIC50        9.40
5  CCC(C)[C@@H](N)C(=O)N[C@@H](Cc1cccc(C)c1)C(=O)NCc1ccc(N)nc1 (stereo partly shown)              pIC50      < 5.00

Tested on Plasminogen (Homo sapiens, UniProt P00747): Cn1c(=O)n(Cc2ccc3ccc(C(=N)N)cc3c2)c2cc(OC3CCN(C(=N)N)CC3)ccc21 . Observed pIC50: 5.53

Here N=C(N)c1ccc(CNC(=O)C2C3CC3CN2C(=O)C(CO)NS(=O)(=O)Cc2ccccc2)cc1 (stereo not shown) was tested on Plasminogen (Homo sapiens, UniProt P00747), and its pIC50 came to 5.60 to 6.60

Item: C[C@H](NC(=O)[C@@H](CO)NS(=O)(=O)c1ccccc1)C(=O)N[C@H](C=O)CCCN=C(N)N | System: Plasminogen (Homo sapiens, UniProt P00747) | pIC50: 5.60 to 6.60

The reported pIC50 value, Plasminogen (Homo sapiens, UniProt P00747), for COc1ccc(OC)c(S(=O)(=O)N[C@H]2CCCCN(CC(=O)NCC3CCN(C(=N)N)CC3)C2=O)c1 reads ≤ 5.60

Record Nc1ccc(CNC(=O)[C@H](CC2CCCC3CCCCC32)NC(=O)c2ccc[nH]2)cn1 (stereo partly shown) / Plasminogen (Homo sapiens, UniProt P00747), pIC50 recorded as < 5.00

Hey, Plasminogen (Homo sapiens, UniProt P00747) data for CCNC(=O)COc1ccccc1CNC(=O)[C@@H]1CCc2cnc(NCCc3ccccc3)c(=O)n21 : pIC50 came out at < 4.48

Simply: CN(C)C(=O)c1ccc(OC(=O)c2ccc(NC(=N)N)cc2)cc1 , Plasminogen (Homo sapiens, UniProt P00747), pIC50 = 7.02

Recorded pIC50 for C=CC[C@H](NC(=O)[C@@H](CO)NS(=O)(=O)Cc1ccccc1)C(=O)NCc1ccc(C(=N)N)cc1 on Plasminogen (Homo sapiens, UniProt P00747) was < 5.60

Field pIC50 (Plasminogen (Homo sapiens, UniProt P00747)), entry N=C(N)c1cc2ccc(OC(=O)c3ccco3)cc2s1 : 9.00

Entry CCC(C)[C@H](C(=O)N[C@@H](Cc1csc2ccccc12)C(=O)NCc1ccc(N)nc1)N(C)S(C)(=O)=O (stereo partly shown) , Plasminogen (Homo sapiens, UniProt P00747) data, pIC50 value: < 5.00

Measured pIC50 for this entry COc1ccc(CCNC(=O)C2(C(=O)N[C@@H](CCCNC(=N)N)B(O)O)CCCC2)cc1OC on Plasminogen (Homo sapiens, UniProt P00747): 5.48
